Test: NCI Yeast Anticancer Drug Screen. Data for the rad14 strain (AID 159);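 further: 0% = growth of vehicle-treated control cultures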
Settings: S. cerevisiae rad14 strain growth inhibition; at 1.2 µM; stronger effect = higher value
This is part of a sample that, as a whole, favours compounds with a hit. Of some 79,000 tested, about 15% had one in any assay.
OUTCOME MEASURE: growth inhibition (%)
The figure you give is taken to be in %; do not add the unit.

Query O=[N+]([O-])c1ccc(N2CCC(CCCC3CCN(c4ccc([N+](=O)[O-])cc4[N+](=O)[O-])CC3)CC2)c([N+](=O)[O-])c1 yields growth inhibition of -32

Query CCCCCCCCCCCCCCCCP(=O)(O)OCC(N)C(=O)O (centres undefined) yields growth inhibition of -67

Query C[C@]12CCc3nonc3C1CC[C@@H]1C2CC[C@]2(C)C(=O)CCC12 (some centres undefined) yields growth inhibition of 27

Query Nc1nnc(N)n1-n1c(N)nnc1N yields growth inhibition of -3

Query BrCC[N+]12CC[N+](CCBr)(CC1)C2 yields growth inhibition of -13

Query COc1cccc2c1C(=O)c1c(O)c3c(c(O)c1C2=O)C[C@@](O)(C(C)=O)C[C@@H]3OC1CC(N)C(OC2CC(O)C(O)C(C)O2)C(C)O1 (some centres undefined) yields growth inhibition of -10

Query C/C(=N\NC(N)=O)C(CN1CCOCC1)C(c1ccccc1)c1c(O)c2ccccc2oc1=O (centres undefined) yields growth inhibition of 7

Query O=C1NC(=S)NC(=O)C1=Cc1ccc([N+](=O)[O-])o1 yields growth inhibition of 5

Query COc1cc(O)c2c(O)c3c(c4c2c1[C@]1(C4)C(C)=CCCC1(C)C)[C@H](O)[C@@]1(O)CC(=O)C(C(N)=O)=C(O)[C@@]1(O)C3=O yields growth inhibition of -57

---

Assay: NCI Yeast Anticancer Drug Screen. Data for the CLN2oe strain (AID 163);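 further: 0% = growth of vehicle-only control cultures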
Conditions: S. cerevisiae CLN2oe strain, at 3.7 µM
The panel holds about 79,000 compounds, 15% with a hit somewhere; the sample as a whole holds those more often. Calls of active or inactive are those of the source. No stated cut-off is given here; in the data, active means growth inhibition above about 70%; inactive means the rest.
Use one of these outcomes when replying: true (1) (active), false (0) (inactive)

## Task Test call for this molecule, please: CCCCCNC(=O)c1c(O)[nH]c(=S)[nH]c1=O
## Result false (0)

## Task Test call for this molecule, please: CCCCN(CCCC)CC(C(C)=O)C(c1ccccc1)c1c(O)c2ccccc2oc1=O (centres undefined)
## Result false (0)

## Task Test call for this molecule, please: N#Cc1cc(N(CCCl)CCCl)c([N+](=O)[O-])cc1[N+](=O)[O-]
## Result false (0)

## Task Test call for this molecule, please: Cc1cccc(NC(=O)CBr)c1
## Result false (0)

## Task Test call for this molecule, please: CNC(=O)OCC1C2=C(C(=O)C(C)=C(N)C2=O)N2CC3C(N3C)C12OC (centres undefined)
## Result false (0)

## Task Test call for this molecule, please: O=C1OC2C(O1)C1(Cl)C(Cl)=C(Cl)C2(Cl)C1(Cl)Cl (centres undefined)
## Result false (0)

## Task Test call for this molecule, please: CC1=C[C@H]2O[C@@H]3C[C@H]4OC(=O)/C=C\C=C\C(C(C)O)OCC(O)C(C)CC(=O)OC[C@@]2(C[C@@H]1O)[C@]4(C)[C@@]31CO1 (some centres undefined)
## Result false (0)

## Task Test call for this molecule, please: CCCCCCCCCCCCCCCCP(=O)(O)OP(=O)(O)OCC1OC(n2ccc(N)nc2=O)C(O)C1O (centres undefined)
## Result false (0)

## Task Test call for this molecule, please: CNC(=O)ON(C(C)=O)C(=O)NC
## Result false (0)

## Task Test call for this molecule, please: O=C1c2ccccc2C(=O)C(Cl)C1Cl (centres undefined)
## Result false (0)

## Task Test call for this molecule, please: O=C(c1ccccc1)C1C(c2ccccc2[N+](=O)[O-])N1C1CCCCC1 (centres undefined)
## Result false (0)

## Task Test call for this molecule, please: Cc1c([N+](=O)[O-])oc2ccc3ccccc3c12
## Result false (0)

## Task Test call for this molecule, please: c1cc2c(cc1C1OC[C@H]3[C@@H](c4ccc5c(c4)OCO5)OC[C@@H]13)OCO2 (some centres undefined)
## Result false (0)

## Task Test call for this molecule, please: Nc1nc(-c2ccccc2)c(-c2ccccc2)[se]1
## Result false (0)

## Task Test call for this molecule, please: O=c1oc2ccccc2c(O)c1C(c1ccc2ccccc2c1)c1c(O)c2ccccc2oc1=O
## Result false (0)

## Task Test call for this molecule, please: Nc1ccccc1C(=O)OCCc1ccccc1
## Result false (0)

## Task Test call for this molecule, please: O=P(Oc1ccc(Cl)cc1)(Oc1ccc(Cl)cc1)N1CC1
## Result false (0)

## Task Test call for this molecule, please: CSC(=Nc1ccccc1)N(c1ccccc1)c1nc(=[N+](C)C)ss1
## Result false (0)

## Task Test call for this molecule, please: c1c(N2CCOCC2)ssc1=[N+]1CCOCC1
## Result false (0)

## Task Test call for this molecule, please: C/C(=N\NC(N)=O)C(CN1CCOCC1)C(c1ccccc1)c1c(O)c2ccccc2oc1=O (centres undefined)
## Result false (0)

## Task Test call for this molecule, please: CN(CCc1ccc(Br)cc1)CCN1CCCCC1
## Result false (0)

## Task Test call for this molecule, please: Oc1ccc2nc3ccccc3nc2c1
## Result false (0)

## Task Test call for this molecule, please: COC(=O)C1=C(C(=O)OC)C2OC1c1cc3ccccc3cc12
## Result false (0)

## Task Test call for this molecule, please: OC1CCCC2CCC[N-]C12.OC1CCCC2CCC[N-]C12.[O]=[V][OH] (centres undefined)
## Result true (1)

## Task Test call for this molecule, please: CCS(=O)(=O)[O][Sn]([CH2]C)([CH2]C)[O]S(=O)(=O)CC
## Result false (0)

## Task Test call for this molecule, please: CC1CN=C(Nc2ccccc2)S1 (centres undefined)
## Result false (0)

## Task Test call for this molecule, please: O=C1C=C(CN(CCCl)CCCl)C(=O)C=C1CN(CCCl)CCCl
## Result false (0)

## Task Test call for this molecule, please: O=c1oc2ccccc2c(O)c1C(c1ccc2c(c1)Cc1ccccc1-2)c1c(O)c2ccccc2oc1=O
## Result false (0)

## Task Test call for this molecule, please: O=S(=O)(O)/C(=C\c1ccccc1)c1ccccc1 (tested in a mixture with another compound)
## Result false (0)

## Task Test call for this molecule, please: CC1=C(N2CC2)C(=O)c2ccccc2C1=O
## Result false (0)

## Task Test call for this molecule, please: CN(C)CCSC1=Nc2ccc(Cl)cc2C(c2ccccc2Cl)=NC1
## Result false (0)

## Task Test call for this molecule, please: CCC1(O)C(=O)OCc2c1cc1n(c2=O)Cc2cc3cc(Cl)ccc3nc2-1 (centres undefined)
## Result false (0)

## Task Test call for this molecule, please: NNc1ccccc1Cl
## Result true (1)

## Task Test call for this molecule, please: NCCc1ccc(OCc2ccccc2)c(OCc2ccccc2)c1
## Result false (0)

## Task Test call for this molecule, please: CC(Cc1ccccc1)N(C)Cc1nc(C2CCC([N+](=O)[O-])O2)no1 (centres undefined)
## Result false (0)

## Task Test call for this molecule, please: CCN(CCCl)CCCCNc1c2ccccc2nc2ccc(OC)cc12
## Result false (0)

## Task Test call for this molecule, please: CCC1(OC(=O)CN)C(=O)OCc2c1cc1n(c2=O)Cc2cc3ccccc3nc2-1 (centres undefined)
## Result false (0)

## Task Test call for this molecule, please: CS(=O)(=O)OCCN(CCOS(C)(=O)=O)c1ccc(C=O)cc1
## Result false (0)

## Task Test call for this molecule, please: BrCC[N+]12CC[N+](CCBr)(CC1)C2
## Result false (0)

## Task Test call for this molecule, please: O=[N+]([O-])c1ccc(-n2nc3ccc4c(no[n+]4[O-])c3[n+]2[O-])c([N+](=O)[O-])c1
## Result false (0)

## Task Test call for this molecule, please: OC1(c2ccccc2)CC2CCC(C1)N2CCCC(O)(c1ccccc1)c1ccccc1 (centres undefined)
## Result false (0)

## Task Test call for this molecule, please: CC[C@](O)(C(=O)O)c1cc2n(c(=O)c1CO)Cc1cc3ccccc3nc1-2
## Result false (0)

## Task Test call for this molecule, please: OCC(O)C(O)CO (centres undefined) (tested in a mixture with another compound)
## Result false (0)

## Task Test call for this molecule, please: COc1cccc2c1C(=O)c1c(O)c3c(c(O)c1C2=O)C[C@@](O)(/C(C)=N\O)C[C@@H]3OC1CC(N)C(O)C(C)O1 (some centres undefined)
## Result false (0)
